# Tested on: SW-620 colon
# TEST_SUMMARY: NCI tumour cell line growth inhibition, 48 h; in the data active means GI50 below about 0.43 µM; inactive means the rest
Classes used: active, inactive

COMPOUND	TARGET_UNDER_TEST	LABEL
COc1cc2nc(-c3ccc(C(F)(F)F)cc3)cc(OCCCN3CCOCC3)c2cc1OC	SW-620 colon	inactive
COc1cc2c(cc1OCc1ccccc1)N=C[C@@H]1C/C(=C/C(=O)NCCCN3C(=O)c4cccc5cccc(c45)C3=O)CN1C2=O	SW-620 colon	active
COc1cc(OC2OC(C)C(O)C(O)C2O)cc2oc(-c3ccc(O)cc3)c(CC=C(C)C)c(=O)c12 (stereo not given)	SW-620 colon	inactive
COc1cc2c(cc1C)NC(=O)/C2=C\c1cc(OC)c(OC)c(OC)c1	SW-620 colon	inactive
C=CC(=O)N1CCCC(n2nc(-c3ccc(Oc4ccccc4)cc3)c3c(N)ncnc32)C1 (stereo not given)	SW-620 colon	inactive
